Readings of AUC for the listed molecules
- assay.overview: Pharmacokinetics in SD rats by oral gavage
- Format: in vivo
- measurement.conditions: male, Sprague-Dawley, rat, plasma, PO 10 mg/kg
Note to self: number, then unit, no commentary.

Some entries whose results are on file:
molecule	AUC
C[C@@H]1[C@H](c2c(F)ccc(F)c2F)C[C@H](NC(=O)c2cnc3c(c2)C[C@@]2(C3)C(=O)Nc3ncccc32)C(=O)N1CC(F)(F)F [Atogepant, reference compound]	2440 ng·h/mL
C[C@@H]1[C@H](c2c(F)ccc(F)c2F)C[C@H](NC(=O)c2cc3c(o2)CC[C@]2(C3)C(=O)Nc3ncccc32)C(=O)N1CC(F)(F)F	23200 ng·h/mL

Query: Can you look up the measured AUC of C[C@@H]1[C@H](c2c(F)ccc(F)c2F)C[C@H](NC(=O)c2cc3c(s2)C[C@]2(C3)C(=O)Nc3ncccc32)C(=O)N1CC(F)(F)F for me?
Reply: 42500 ng·h/mL

---

- assay.overview: Pharmacokinetics in SD rats by oral gavage
- Assay type: in vivo
- measurement.conditions: male, Sprague-Dawley, rat, plasma, PO 10 mg/kg, read-out: Half-life period T½ (converted)
readout.label: half-life (h)
Report as a plain number; the unit h is understood.

compound	readout.unit	half-life
C[C@@H]1[C@H](c2c(F)ccc(F)c2F)C[C@H](NC(=O)c2cc3c(o2)CC[C@]2(C3)C(=O)Nc3ncccc32)C(=O)N1CC(F)(F)F	h	2.93
C[C@@H]1[C@H](c2c(F)ccc(F)c2F)C[C@H](NC(=O)c2cc3c(s2)C[C@]2(C3)C(=O)Nc3ncccc32)C(=O)N1CC(F)(F)F	h	1.62

Would you kindly look at the next entry?
Query: Can you look up the measured half-life of C[C@@H]1[C@H](c2c(F)ccc(F)c2F)C[C@H](NC(=O)c2cnc3c(c2)C[C@@]2(C3)C(=O)Nc3ncccc32)C(=O)N1CC(F)(F)F [Atogepant, reference compound] for me?
Reply: 1.6

---

- assay.overview: Pharmacokinetics in Cynomolgus monkeys by oral gavage
- Assay type: in vivo
- measurement.conditions: male, cynomolgus monkey, plasma, PO 2 mg/kg, read-out: Plasma concentration Cmax
Readings of Cmax for the listed compounds

compound	Cmax
C[C@@H]1[C@H](c2c(F)ccc(F)c2F)C[C@H](NC(=O)c2cnc3c(c2)C[C@@]2(C3)C(=O)Nc3ncccc32)C(=O)N1CC(F)(F)F [Atogepant, reference compound]	108 ng/mL
C[C@@H]1[C@H](c2c(F)ccc(F)c2F)C[C@H](NC(=O)c2cc3c(o2)CC[C@]2(C3)C(=O)Nc3ncccc32)C(=O)N1CC(F)(F)F	294 ng/mL

Would you kindly look at the next entry?
Query: Can you look up the measured Cmax of C[C@@H]1[C@H](c2c(F)ccc(F)c2F)C[C@H](NC(=O)c2cc3c(s2)C[C@]2(C3)C(=O)Nc3ncccc32)C(=O)N1CC(F)(F)F for me?
Reply: 778 ng/mL

---

Readings of log10(IC50) for the listed compounds
- assay.system: CGRP receptor (Homo sapiens, UniProt O60894+Q16602)
- Sequence (Q16602 23-461): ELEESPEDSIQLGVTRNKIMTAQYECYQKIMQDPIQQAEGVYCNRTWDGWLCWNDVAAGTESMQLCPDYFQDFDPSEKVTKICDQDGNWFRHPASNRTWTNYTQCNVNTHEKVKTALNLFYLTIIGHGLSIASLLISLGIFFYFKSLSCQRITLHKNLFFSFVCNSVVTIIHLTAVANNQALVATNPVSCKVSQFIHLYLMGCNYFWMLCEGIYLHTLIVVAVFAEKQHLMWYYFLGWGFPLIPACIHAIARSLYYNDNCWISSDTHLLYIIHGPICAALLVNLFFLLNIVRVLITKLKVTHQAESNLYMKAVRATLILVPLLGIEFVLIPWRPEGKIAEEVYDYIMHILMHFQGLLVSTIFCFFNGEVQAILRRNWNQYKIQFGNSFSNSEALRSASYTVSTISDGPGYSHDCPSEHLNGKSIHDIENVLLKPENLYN
- Sequence (O60894 27-148): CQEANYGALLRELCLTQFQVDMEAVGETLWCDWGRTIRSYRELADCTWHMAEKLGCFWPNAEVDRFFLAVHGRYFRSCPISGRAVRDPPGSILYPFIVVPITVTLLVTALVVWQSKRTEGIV
- assay.overview: Inhibition of CGRP signaling pathway (cAMP, HTRF) in SK-N-MC cells
- Format: cell-based
- Set-up: SK-N-MC (ATCC, HTB-10) cells endogenously expressing CGRP receptor; host or cells: SK-N-MC
- measurement.conditions: [α-CGRP]=10 ng/mL; increase in cAMP levels; read-out: IC50 of the inhibitory effect on the CGRP signaling pathway in SK-N-MC cells
- Protocol: The inhibitory effect of the CGRP signaling pathway in vitro is evaluated by measuring the cAMP level. The principle is that after CGRP binds to the CGRP receptor, the CGRP signaling pathway is activated, inducing an increase in the cAMP level. […] The specific experimental method is as follows: cAMP was determined using the CAMP-GS DYNAMIC KIT detection kit (Cisbio, 62AM4PEB). […]
The common logarithm of IC50 in nM is what is listed.

Some entries whose results are on file:
compound	assay.value
C[C@@H]1[C@H](c2c(F)ccc(F)c2F)C[C@H](NC(=O)c2cc3c(s2)C[C@]2(C3)C(=O)Nc3ncccc32)C(=O)N1CC(F)(F)F [Example 3A]	-0.17
C[C@@H]1[C@H](c2c(F)ccc(F)c2F)C[C@H](NC(=O)c2cc3c(o2)CC[C@]2(C3)C(=O)Nc3ncccc32)C(=O)N1CC(F)(F)F [Example 1A]	-0.74

Query: Can you look up the measured log10(IC50) of C[C@@H]1[C@H](c2c(F)ccc(F)c2F)C[C@H](NC(=O)c2cnc3c(c2)C[C@@]2(C3)C(=O)Nc3ncccc32)C(=O)N1CC(F)(F)F [Atogepant, reference compound] for me?
Reply: -0.92

Query: Can you look up the measured log10(IC50) of C[C@@H]1[C@H](c2c(F)ccc(F)c2F)C[C@H](NC(=O)c2nc3c(s2)CC2(C3)C(=O)Nc3ncccc32)C(=O)N1CC(F)(F)F (some centres unmarked) [Example 11] for me?
Reply: 1.04

Query: Can you look up the measured log10(IC50) of C[C@@H]1[C@H](c2c(F)ccc(F)c2F)C[C@H](NC(=O)c2nc3c(o2)CCC2(C3)C(=O)Nc3ncccc32)C(=O)N1CC(F)(F)F (some centres unmarked) [Example 12] for me?
Reply: 1.73

Query: Can you look up the measured log10(IC50) of C[C@@H]1[C@H](c2c(F)ccc(F)c2F)C[C@H](NC(=O)c2cc3c([nH]2)CCC2(C3)C(=O)Nc3ncccc32)C(=O)N1CC(F)(F)F (some centres unmarked) [Example 13] for me?
Reply: -0.05

Query: Can you look up the measured log10(IC50) of C[C@@H]1[C@H](c2c(F)ccc(F)c2F)C[C@H](NC(=O)c2cc3c([nH]2)CC2(C3)C(=O)Nc3ncccc32)C(=O)N1CC(F)(F)F (some centres unmarked) [Example 10] for me?
Reply: 0.83
